Tested on: Radical scavenging activity
Assay: Antioxidant activity assessed as DPPH-radical scavenging activity
Assay type: functional
Activity calls are given as the source filed them. The calls are words filed in the database; no cut-off is given here.
RESULT_TYPE: Activity

Reference set, count: 5
C=CC(C)(O)CC(O)[C@]1(C)C2=C([C@H](OC(C)=O)C[C@@H]1C)[C@@](C)(COC(C)=O)C(=O)CC2 (stereo partly drawn)    inactive
CC1(C)CC[C@]2(C(=O)O)CC[C@]3(C)C(=CC[C@@H]4[C@@]5(C)C[C@@H](O)[C@H](O)C(C)(C)[C@@H]5CC[C@]43C)[C@@H]2C1    inactive
C=C[C@]1(C)C=C2C(=O)C[C@H]3C(C)(C)[C@@H](O[C@@H]4O[C@H](CO)[C@@H](O)[C@H](O)[C@H]4O[C@@H]4O[C@H](CO)[C@@H](O)[C@H](O)[C@H]4O)CC[C@]3(C)[C@H]2CC1    inactive
C=C[C@]1(C)C=C2C(=O)C[C@H]3C(C)(C)[C@@H](O[C@@H]4O[C@H](CO)[C@@H](O)[C@H](O)[C@H]4O[C@@H]4O[C@H](CO[C@@H]5O[C@H](CO)[C@@H](O)[C@H](O)[C@H]5O)[C@@H](O)[C@H](O)[C@H]4O)CC[C@]3(C)[C@H]2CC1    inactive
O=C(N[C@H](COC(=O)[C@H](Cc1ccccc1)NC(=O)c1ccccc1)Cc1ccccc1)c1ccccc1    inactive

Indicate the recorded Activity value for this compound: C=C[C@]1(C)C=C2C(=O)C[C@H]3C(C)(C)[C@@H](O[C@@H]4O[C@H](CO[C@@H]5O[C@H](CO)[C@@H](O)[C@H](O)[C@H]5O)[C@@H](O)[C@H](O)[C@H]4O[C@@H]4O[C@@H](C)[C@H](O)[C@@H](O)[C@H]4O)CC[C@]3(C)[C@H]2CC1
inactive

Read the entry C[C@@H]1CC(=O)[C@H]2C(C)(C)[C@@H](O)CC[C@]2(C)[C@@]12CC[C@@]1(CCOC1O)O2 (mixture of isomers) and write its reported Activity.
inactive

State its Activity: C=CC(C)(O)CC(OC(C)=O)[C@]1(C)C2=C([C@H](OC(C)=O)C[C@@H]1C)[C@@](C)(COC(C)=O)C(=O)CC2 (stereo partly drawn)
inactive

Hello, the source for this data is ChEMBL document CHEMBL1142596, in case you need it.
